# ASSAY_INFO: Standard protocol for determination of kcat and KM (continuous spectrophotometric assay, Acetyl CoA hydrolysis at 235 nm)
# Type: biochemical
# CONDITION_CONTEXT: purified protein; about 23° C.; pH 6.8; 0.2 mM acetyl CoA; glyphosate 0.125 to 10 mM
Below, each entry is listed with its recorded Km.
PARAMETER: Km (µM)

{"MOLECULE": "SEQ ID NO: 316: GAT polypeptide (protein, 14_6A8, GAT polypeptide) MIEVKPINAEDTYEIRHRILRPNQPLEACMYETDLLGGTFHLGGYYRGKLVSIASFNQAEHPELEGQKQYQLRGMATLEGYREQKAGSTLIRHAEELLRKKGADLLWCNARTSASGYYKKLGFSEQGEVYDTPPVGPHVLMYKKLT", "MEASUREMENT_UNITS": "µM", "EXPERIMENTAL_RESULT": 780}
{"MOLECULE": "SEQ ID NO: 376: GAT polypeptide (protein, 4B_2H8, GAT polypeptide) MIEAKPINAEDTYEIRHRILRPNQPLEACKYETDLLGGTFHLGGYYRGKLISIASFHQAEHSELEGQKQYQLRGMATLEGYREQKAGSTLIRHAEELLRKKGADLLWCNARTSASGYYKKLGFSEQGEVYDIPPIGPHILMYKKLT", "MEASUREMENT_UNITS": "µM", "EXPERIMENTAL_RESULT": 1200}
{"MOLECULE": "SEQ ID NO: 369: GAT polypeptide (protein, 4B_16E1, GAT polypeptide) MIEVKPINAEDTYEIRHRILRPNQPLEACKYETDLLGGTFHLGGYYRGKLISIASFHQAEHSELEGQKQYQLRGMATLEGYREQKAGSTLIRHAEELLRKKGADLLWCNARTSASGYYKKLGFSEQGGVYDIPPIGPHILMYKKLT", "MEASUREMENT_UNITS": "µM", "EXPERIMENTAL_RESULT": 1000}
{"MOLECULE": "SEQ ID NO: 420: GAT polypeptide (protein, 7_9C9, GAT polypeptide) MIEVKPINAEDTYEIRHRILRPNQPLEACMYETDLLGGTFHLGGYYRGKLISIASFHQAEHPELEGQKQYQLRGMATLEGYREQKAGSTLIRHAEELLRKKGADLLWCNARTSASGYYKKLGFSEQGEVYDIPPIGPHILMYKKLT", "MEASUREMENT_UNITS": "µM", "EXPERIMENTAL_RESULT": 1000}
{"MOLECULE": "SEQ ID NO: 361: GAT polypeptide (protein, 3B_2E5, GAT polypeptide) MIEVKPINAEDTYEIRHRILRPNQPLEACMYETDLLGGTFHLGGYYRGKLISIASFHQAEHSELEGQKQYQLRGMATLEGYREQKAGSTLIRHAEELLRKKGADLLWCNARTSASGYYEKLGFSKQGEVYDIPPIGPHILMYKKLT", "MEASUREMENT_UNITS": "µM", "EXPERIMENTAL_RESULT": 1300}
{"MOLECULE": "SEQ ID NO: 375: GAT polypeptide (protein, 4B_2H7, GAT polypeptide) MIEVKPINAEDTYEIRHRILRPNQPLEACMYETDLLGGTFHLGGYYRGKLISIASFHQAEHSELEGQKQYQLRGMATLEGYREQKAGSTLIRHAEELLRKKGADLLWCNARTSASGYYKKLGFSEQGGVYGIPPIGPHILMYKKLT", "MEASUREMENT_UNITS": "µM", "EXPERIMENTAL_RESULT": 6200}
